testedOn: NDM-1 (Klebsiella pneumoniae)
Assay type: biochemical, Escherichia coli
conditionParameters: NDM-1 1 to 200 fmols; probe 10 μM, 25 μL 1×PBS pH 7.4, room temperature, 2 h

molecule	testedOn	fluorescence enhancement
Cc1ccc(S(=O)(=O)O[C@H]2C(=O)N3C(C(=O)O)=C(COc4ccc5ccc(=O)oc5c4)CS[C@H]23)cc1 [(s)-CC-6]	NDM-1 (Klebsiella pneumoniae)	fluorescence enhancement
CC(C)O[C@H]1C(=O)N2C(C(=O)O)=C(COc3ccc4ccc(=O)oc4c3)CS[C@H]12 [(s)-CC-3]	NDM-1 (Klebsiella pneumoniae)	fluorescence enhancement

----------
// reported Spontaneous hydrolysis rate for each item listed
protocol: Spontaneous hydrolysis of probe in PBS buffer
Assay type: physicochemical
conditionParameters: [S]0=20 μM
Expressed in s⁻¹, but write only the number.

compound	outputUnit	Spontaneous hydrolysis rate
CC(C)O[C@H]1C(=O)N2C(C(=O)O)=C(COc3ccc4ccc(=O)oc4c3)CS[C@H]12 [(s)-CC-3]	s⁻¹	4.8e-07
O=C(O)C1=C(COc2ccc3ccc(=O)oc3c2)CS[C@@H]2[C@@H](OCc3ccccc3)C(=O)N12 [(s)-CC-5]	s⁻¹	2.7e-07
CCO[C@H]1C(=O)N2C(C(=O)O)=C(COc3ccc4ccc(=O)oc4c3)CS[C@H]12 [(s)-CC-2]	s⁻¹	5.9e-07
CO[C@H]1C(=O)N2C(C(=O)O)=C(COc3ccc4ccc(=O)oc4c3)CS[C@H]12 [(s)-CC-1]	s⁻¹	7e-08
Cc1ccc(S(=O)(=O)O[C@H]2C(=O)N3C(C(=O)O)=C(COc4ccc5ccc(=O)oc5c4)CS[C@H]23)cc1 [(s)-CC-6]	s⁻¹	2.6e-07

Then this compound:
[ask] Look up Spontaneous hydrolysis rate for this compound: CC(C)(C)O[C@H]1C(=O)N2C(C(=O)O)=C(COc3ccc4ccc(=O)oc4c3)CS[C@H]12 [(s)-CC-4]
[reply] 5.4e-07

----------
# kcat per entry
testedOn: KPC-3 (Klebsiella pneumoniae, UniProt Q9F663, H272Y)
conditionParameters: from Lineweaver-Burk plots
Note: unit s⁻¹ is implicit; provide only the numeric part.

molecule	testedOn	kcat, s⁻¹
CC(C)O[C@H]1C(=O)N2C(C(=O)O)=C(COc3ccc4ccc(=O)oc4c3)CS[C@H]12 [(s)-CC-3]	KPC-3 (Klebsiella pneumoniae, UniProt Q9F663, H272Y)	0.2
Cc1ccc(S(=O)(=O)O[C@H]2C(=O)N3C(C(=O)O)=C(COc4ccc5ccc(=O)oc5c4)CS[C@H]23)cc1 [(s)-CC-6]	KPC-3 (Klebsiella pneumoniae, UniProt Q9F663, H272Y)	0.3

Consider now this further molecule.
[ask] Using the record for CO[C@H]1C(=O)N2C(C(=O)O)=C(COc3ccc4ccc(=O)oc4c3)CS[C@H]12 [(s)-CC-1] , report its kcat.
[reply] 1.5

----------
testedOn: IMP-1 (Serratia marcescens)
Format: biochemical, Escherichia coli
conditionParameters: IMP-1 1 to 200 fmols; probe 10 μM, 25 μL 1×PBS pH 7.4, room temperature, 2 h

compound	fluorescence enhancement
Cc1ccc(S(=O)(=O)O[C@H]2C(=O)N3C(C(=O)O)=C(COc4ccc5ccc(=O)oc5c4)CS[C@H]23)cc1 [(s)-CC-6]	fluorescence enhancement
CC(C)O[C@H]1C(=O)N2C(C(=O)O)=C(COc3ccc4ccc(=O)oc4c3)CS[C@H]12 [(s)-CC-3]	fluorescence enhancement

----------
testedOn: KPC-3 (Klebsiella pneumoniae, UniProt Q9F663, H272Y)
conditionParameters: from Lineweaver-Burk plots
recordedMetric: kcat (s⁻¹)
Number only, in s⁻¹; omit the unit.

compound	recordedMetric	outputUnit	numericResult
CC(C)(C)O[C@H]1C(=O)N2C(C(=O)O)=C(COc3ccc4ccc(=O)oc4c3)CS[C@H]12 [(s)-CC-4]	kcat	s⁻¹	0.2

[ask] # kcat lookup, item O=C(O)C1=C(COc2ccc3ccc(=O)oc3c2)CS[C@@H]2[C@@H](OCc3ccccc3)C(=O)N12 [(s)-CC-5]
[reply] 1.1

[ask] # query: kcat of entry CCO[C@H]1C(=O)N2C(C(=O)O)=C(COc3ccc4ccc(=O)oc4c3)CS[C@H]12 [(s)-CC-2]
[reply] 0.3

[ask] Need kcat of O=C(Cc1ccccc1)N[C@@H]1C(=O)N2C(C(=O)O)=C(COc3ccc4ccc(=O)oc4c3)CS[C@H]12 [CDC-1, reference compound] , thanks.
[reply] 35.4

----------
Known Km of a selection of molecules
testedOn: KPC-3 (Klebsiella pneumoniae, UniProt Q9F663, H272Y)
conditionParameters: from Lineweaver-Burk plots
Numbers only here, please. The scale is µM.

[ask] Form field: reported Km of Cc1ccc(S(=O)(=O)O[C@H]2C(=O)N3C(C(=O)O)=C(COc4ccc5ccc(=O)oc5c4)CS[C@H]23)cc1 [(s)-CC-6]
[reply] 18.7

[ask] What value of Km has been reported for the following molecule? CC(C)O[C@H]1C(=O)N2C(C(=O)O)=C(COc3ccc4ccc(=O)oc4c3)CS[C@H]12 [(s)-CC-3]
[reply] 250

[ask] So what does the record say about Km for CC(C)(C)O[C@H]1C(=O)N2C(C(=O)O)=C(COc3ccc4ccc(=O)oc4c3)CS[C@H]12 [(s)-CC-4] ?
[reply] 121

[ask] Dear colleague, I am looking for the recorded Km of the following molecule: CCO[C@H]1C(=O)N2C(C(=O)O)=C(COc3ccc4ccc(=O)oc4c3)CS[C@H]12 [(s)-CC-2]
[reply] 39.1

[ask] Using the record for O=C(Cc1ccccc1)N[C@@H]1C(=O)N2C(C(=O)O)=C(COc3ccc4ccc(=O)oc4c3)CS[C@H]12 [CDC-1, reference compound] , report its Km.
[reply] 21

[ask] Which Km is reported for this molecule? CO[C@H]1C(=O)N2C(C(=O)O)=C(COc3ccc4ccc(=O)oc4c3)CS[C@H]12 [(s)-CC-1]
[reply] 67.7

[ask] Quick one: Km of O=C(O)C1=C(COc2ccc3ccc(=O)oc3c2)CS[C@@H]2[C@@H](OCc3ccccc3)C(=O)N12 [(s)-CC-5] ?
[reply] 5.2

----------
Tested on: VIM-27
protocol: Kinetic parameters of probes with recombinant VIM-27 (Lineweaver-Burk plots)
conditionParameters: from Lineweaver-Burk plots
The entries below are paired with their reported Km.
Return type: number; implicit unit µM.

Check out these entries, answers already filled in.
compound	outputUnit	Km
CCO[C@H]1C(=O)N2C(C(=O)O)=C(COc3ccc4ccc(=O)oc4c3)CS[C@H]12 [(s)-CC-2]	µM	23
CC(C)(C)O[C@H]1C(=O)N2C(C(=O)O)=C(COc3ccc4ccc(=O)oc4c3)CS[C@H]12 [(s)-CC-4]	µM	91.6
O=C(Cc1ccccc1)N[C@@H]1C(=O)N2C(C(=O)O)=C(COc3ccc4ccc(=O)oc4c3)CS[C@H]12 [CDC-1, reference compound]	µM	3.8
Cc1ccc(S(=O)(=O)O[C@H]2C(=O)N3C(C(=O)O)=C(COc4ccc5ccc(=O)oc5c4)CS[C@H]23)cc1 [(s)-CC-6]	µM	14.1
CC(C)O[C@H]1C(=O)N2C(C(=O)O)=C(COc3ccc4ccc(=O)oc4c3)CS[C@H]12 [(s)-CC-3]	µM	61.3

[ask] // query Km value for entry O=C(O)C1=C(COc2ccc3ccc(=O)oc3c2)CS[C@@H]2[C@@H](OCc3ccccc3)C(=O)N12 [(s)-CC-5]
[reply] 145

[ask] Item CO[C@H]1C(=O)N2C(C(=O)O)=C(COc3ccc4ccc(=O)oc4c3)CS[C@H]12 [(s)-CC-1] has what recorded Km?
[reply] 29.2
